Test system: Plasmodium falciparum
methodSummary: GSK_TCMDC: Inhibition of Plasmodium falciparum Dd2 in whole red blood cells, using parasite LDH activity as an index of growth. Test compounds present at 2uM
Type: functional
quantityKind: Inhibition (%)
Write the value in % as a bare number.

So what does the record say about Inhibition for CC(=O)c1ccc(-c2cccc3c(CC(=O)Nc4ccc5nccc(N6CCN(C)CC6)c5c4)cccc23)cc1 ?
96

Follow-up entry: CNS(=O)(=O)CCNCc1ccc(-c2ccc3ncnc(Nc4ccc(OCc5ccccc5)cc4)c3c2)o1
26

Next compound: Cc1ccc(NC(=O)c2cc([N+](=O)[O-])ccc2NCc2cccnc2)cc1Cl
58

Record: CN(C)CCCOc1cc(NC(=O)Nc2ccc(-c3ccncc3)c3ccccc23)ccc1I.Cl
97

And for C=CCc1ccc(C2CCN(CCCCNC(=O)c3ccc(NC(=O)c4ccc(Cl)cc4)cc3)CC2)cc1 ?
97

Then what about the compound CCC1CCCCN1S(=O)(=O)c1ccc(NC(=O)c2cc(C)on2)cc1 (stereo not given) ?
53

How about Cc1csc(-c2ncc(OC[C@@H](N)Cc3ccccc3)cc2-c2ccc3[nH]nc(C)c3c2)c1.O=C(O)C(F)(F)F ?
35

Continue with Nc1c2ccccc2nc2cc(Cl)ccc12
86

Param item: O=C(Nc1ccc(-c2nc3ccccc3[nH]2)cc1)c1ccc(Cl)s1
34

Next compound: Cl.N=C(N)Nc1ccc(OCCCCCOc2ccc(NC(=N)N)cc2Br)c(Br)c1
95

Same lookup for CN(C)C(CNc1ncnc2cc(Cl)ccc12)Cc1ccccc1 (stereo not given) , please.
88

Cool, now Cn1c(=O)c(-c2c(Cl)cccc2Cl)cc2cnc(Nc3ccc(N4CCOCC4)cc3)nc21
97

Field entry: CC(C)(C)Nc1cc(C(=O)N[C@@H](Cc2ccccc2)[C@H](O)CNC2CCOCC2)cc(N2CCCCS2(=O)=O)c1
98

Consider next the compound Cc1ccc(S(=O)(=O)N(CCCNCc2cccc(O)c2)c2ccccc2)cc1 in the same way.
94

Lookup CCCCCCNCCOc1ccc(-c2nc(-c3ccccc3)c(-c3ccccc3)[nH]2)cc1
39

Origin of the recorded values: ChEMBL document CHEMBL1157539
